Cited source for all entries: the supplement of paper PMC8671470

Tested on: THP-1
Conditions: 72 h
Reported IC50 (cell viability) values for a set of compounds

For orientation, consider the following solved cases.
| COMPOUND | VAL |
| --- | --- |
| NCCCC(N)(C(=O)O)C(F)F (centres undefined) | > 10 µM |
| O=c1cc(-c2ccccc2)oc2cc(O)c(O)c(O)c12 | > 10 µM |
| CCCCCCCCCCCC(=O)c1c(O)c(C(=O)CCCCCCCCCCC)c(O)c(C2CC(c3ccc(O)cc3)Oc3cc(O)ccc32)c1O (centres undefined) | > 10 µM |

What measured IC50 (cell viability) goes with CC[C@@]1(O)C(=O)OCc2c1cc1n(c2=O)Cc2cc3c(CN(C)C)c(O)ccc3nc2-1 ?
0.289 µM

###

Below, each entry is listed with its recorded cell viability.
Test system: SHI-1
Experiment: cell viability (% survival relative to DMSO control, bortezomib = 0%); higher = less cytotoxic
Conditions: 1000 nM; 72 h
Use % as the unit, but write only the number.

| MOLECULE | MEASURED TARGET | RESULT UNITS | VAL |
| --- | --- | --- | --- |
| C[C@](N)(Cc1ccc(O)cc1)C(=O)O | SHI-1 | % | 101 |
| NCCCC(N)(C(=O)O)C(F)F (stereo unspecified) | SHI-1 | % | 104 |
| CCOP(=O)(OCC)C(=Cc1cc(C(C)(C)C)c(O)c(C(C)(C)C)c1)P(=O)(OCC)OCC | SHI-1 | % | 94.9 |
| CCCCN1C[C@H](O)[C@@H](O)[C@H](O)[C@H]1CO | SHI-1 | % | 98.6 |
| CCCCC/C=C\C/C=C\C/C=C\C/C=C\CCCCN1C(=O)C=CC1=O [N-Arachidonylmaleimide] | SHI-1 | % | 104 |
| CCOC(=O)c1ccc(-c2ccc(OC(=O)N(C)Cc3cccc(-c4ccncc4)c3)cc2)cc1 | SHI-1 | % | 95.2 |

Entry CC[C@@]1(O)C(=O)OCc2c1cc1n(c2=O)Cc2cc3c(CN(C)C)c(O)ccc3nc2-1 has what cell viability?
-0.151

Request the reported cell viability associated with Nc1ccccc1C(=O)C[C@H](N)C(=O)O
104

Suppose we examine the molecule CC(C)c1cc2c(c(O)c1O)[C@@]1(C(=O)O)CCCC(C)(C)[C@@H]1CC2 ; what cell viability value has been reported?
112

I have this molecule here, O=c1oc2c(O)c(O)cc3c(=O)oc4c(O)c(O)cc1c4c23 , and I need its recorded cell viability.
94.3

Report cell viability for N#CC(C#N)=NNc1ccc(OC(F)(F)F)cc1 please.
91.5

###

Test system: THP-1
Test: cell viability (% survival relative to DMSO control, bortezomib = 0%); higher = less cytotoxic
Conditions: 10000 nM; 72 h
cell viability under 90% gets Y, anything at or over 90% gets N.

| COMPOUND | CLASS LABEL |
| --- | --- |
| N#Cc1ccnc(N2C(=O)CC[C@H]2C(=O)N(c2cncc(F)c2)C(C(=O)NC2CC(F)(F)C2)c2ccccc2Cl)c1 (some centres not stated) | N |
| O=C(NNc1ccccc1)c1ccncc1 | N |
| Cc1cn([C@H]2C[C@H](O)[C@@H](COP(=O)(O)OP(=O)(O)O)O2)c(=O)[nH]c1=O [Thymidine diphosphate] | N |

For this compound, is cell viability lower than 90%? O=C1c2cc([N+](=O)[O-])ccc2-n2c1nc1ccccc1c2=O
Y

Consider the compound O=C(O)C(=O)CBr . Is its cell viability strictly less than 90%?
N

Find out if reported cell viability for NCCCC(N)(C(=O)O)C(F)F (configuration not stated) is less than 90%
N

###

Tested on: HL-60
Assay: cell viability (% survival relative to DMSO control, bortezomib = 0%); higher = less cytotoxic
Conditions: 10 nM; 72 h
PARAMETER MEASURED: cell viability (%)
Report only the number, with the unit % understood.

The following molecules have reported results that may help.
| MOLECULE | VAL |
| --- | --- |
| Nc1nc(Cl)nc2c1ncn2[C@H]1C[C@H](O)[C@@H](CO)O1 | 88.3 |
| CN(C)C(=O)[C@H](O)[C@H](Cc1ccccc1)NC(=O)c1cc2cc(Cl)ccc2[nH]1 | 100 |
| CC(C)(C#N)c1cc(Cn2cncn2)cc(C(C)(C)C#N)c1 | 99.7 |

Using the record for O=C(O)Cn1nnc(-c2cc(N3CCC(Oc4cc(F)ccc4Br)CC3)no2)n1 , report its cell viability.
93.2

What measured cell viability goes with O=C1c2cc([N+](=O)[O-])ccc2-n2c1nc1ccccc1c2=O ?
92.2

Param item = CC[C@@]1(O)C(=O)OCc2c1cc1n(c2=O)Cc2cc3c(CN(C)C)c(O)ccc3nc2-1 ; retrieve measured cell viability.
81.7

Which cell viability is listed for CCCc1cc(-c2nc(-c3ccc(C)cc3)cs2)ccn1 ?
84.6

What measured cell viability goes with CCOC(=O)c1ccc(-c2ccc(OC(=O)N(C)Cc3cccc(-c4ccncc4)c3)cc2)cc1 ?
91.3

Sample N/C(=N\CCCC(N)C(=O)O)N[N+](=O)[O-] (centres undefined) — what was its cell viability?
75.4

###

System: myeloid leukemia patient primary cells Pat.8
Assay: cell viability (% survival relative to DMSO control); higher = less cytotoxic
Conditions: 100 nM; 72 h
Recorded cell viability for the following compounds
Report as: number unit

| SMILES CODE | PARAMETER MEASURED | VAL |
| --- | --- | --- |
| N#CC(C#N)=NNc1ccc(OC(F)(F)F)cc1 | cell viability | 82.1% |

Observed cell viability on myeloid leukemia patient primary cells Pat.8 for O=C1c2cc([N+](=O)[O-])ccc2-n2c1nc1ccccc1c2=O , please.
88.4%

Give myeloid leukemia patient primary cells Pat.8 cell viability for Oc1ccc(Nc2nc(-c3ccc(Cl)cc3)cs2)cc1
84.5%

Short answer please: cell viability, myeloid leukemia patient primary cells Pat.8, entry C=C(C)[C@H]1Cc2c(ccc3c2O[C@@H]2COc4cc(OC)c(OC)cc4[C@@H]2C3=O)O1
55.6%

Record O=C(C1CC1)N1CC[C@@H](C=C2NNC(=O)N2c2ccc(-c3ccc4occc4c3)cc2)C1 : what is its cell viability with myeloid leukemia patient primary cells Pat.8?
74%

###

Test system: K-562
Test: cell viability (% survival relative to DMSO control, bortezomib = 0%); higher = less cytotoxic
Conditions: 100 nM; 72 h
Structures can show the parent of a compound that is named as a salt.
Decision: cell viability beneath 90% gives fulfilled; cell viability meeting or exceeding 90% gives not fulfilled.

Record excerpt, results attached:
| COMPOUND | CLASS LABEL |
| --- | --- |
| CC[C@@]1(O)C(=O)OCc2c1cc1n(c2=O)Cc2cc3c(CN(C)C)c(O)ccc3nc2-1 | fulfilled |
| O=C(O)c1cc(N=Nc2ccc(S(=O)(=O)Nc3ccccn3)cc2)ccc1O | not fulfilled |
| CCCCCCCCCCCC(=O)c1c(O)c(C(=O)CCCCCCCCCCC)c(O)c(C2CC(c3ccc(O)cc3)Oc3cc(O)ccc32)c1O (stereo not given) | not fulfilled |
| Cc1cc(CS(=O)(=O)c2ccccc2)cc(OCc2ccc(CN3CCC[C@@H]3CO)cc2)c1 [PF-543 hydrochloride] | not fulfilled |
| Nc1nc(Cl)nc2c1ncn2[C@H]1C[C@H](O)[C@@H](CO)O1 | fulfilled |

Please determine if CCOC(=O)c1ccc(-c2ccc(OC(=O)N(C)Cc3cccc(-c4ccncc4)c3)cc2)cc1 is below 90% in terms of cell viability.
not fulfilled

Is cell viability strictly under 90% for the entry O=C1O[C@H]([C@@H](O)CO)C(O)=C1O [Vitamin C (ascorbate)] ?
not fulfilled

Identify whether the compound Cl.NC(CCC(=O)Nc1ccc([N+](=O)[O-])cc1)C(=O)O (stereo not given) records cell viability below 90%.
not fulfilled

###

System: HL-60
Test: cell viability (% survival relative to DMSO control); higher = less cytotoxic
Conditions: 0.01 µM; 72 h; co-treatment: DMSO vehicle
PARAMETER MEASURED: cell viability (%)
Number in %, nothing else.

| COMPOUND | PARAMETER MEASURED | VAL |
| --- | --- | --- |
| O=C(O)C(=S)Cc1c[nH]c2ccc(F)cc12 | cell viability | 101 |
| CCCc1cc(-c2nc(-c3ccc(C)cc3)cs2)ccn1 | cell viability | 96.1 |
| O=C(O)C[C@@]1(O)C[C@@H](CCCCCCc2ccc(Cl)cc2Cl)OC1=O | cell viability | 105 |
| CCCCN1C[C@H](O)[C@@H](O)[C@H](O)[C@H]1CO | cell viability | 101 |
| O=C1c2cc([N+](=O)[O-])ccc2-n2c1nc1ccccc1c2=O | cell viability | 102 |
| O=C(O)C1=CC(=C(c2ccc(O)c(C(=O)O)c2)c2ccc(O)c(C(=O)O)c2)C=CC1=O | cell viability | 81.6 |

Looking for the measured cell viability of Cc1coc2c1C(=O)C(=O)c1c-2ccc2c1CCCC2(C)C , can you help?
105

Need cell viability, item Cl.NC(CCC(=O)Nc1ccc([N+](=O)[O-])cc1)C(=O)O (centres undefined)
100

# input compound: CCOP(=O)(OCC)C(=Cc1cc(C(C)(C)C)c(O)c(C(C)(C)C)c1)P(=O)(OCC)OCC ; wanted: its cell viability
105
